All values here come from the supplement of paper PMC12042874.

Reported amyloid nucleation score values are given for each entry in this list.
Experiment: amyloid nucleation score (Sup35N fusion, yeast selection) (log enrichment); library NNK2; higher = more nucleation; inactive = no reads after selection;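 note: zero at mode of non-aggregating sequences after 7 days selection at 30°C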
Would you mind answering with just the numeric figure?

Solved cases below.
RAWHPFDGEYNIVFSHIVLK; -0.525
RLNCACFRADTVGDYLGVRL; -0.158

*Q* # get_value(readout='amyloid nucleation score', item= TYSFVSLTYDSVTVFALTRC )
*A* -0.326

*Q* # get_value(readout='amyloid nucleation score', item= KHSEDSYCFMSGLSGVICCK )
*A* 0.932

*Q* # get_value(readout='amyloid nucleation score', item= MFKDNLLIVLFMLLMGLMRW )
*A* 3.45

*Q* # get_value(readout='amyloid nucleation score', item= ELAHQNENFRGRRFVAQ )
*A* -0.038
